- ASSAY_EXPLANATION: Aggregation property of the compound in ammonium acetate buffer at pH 7.6 assessed as light scattering intensity counts at 10 uM in absence of Triton X-100 by dynamic light scattering method
- Type: physicochemical
- CONDITION: pH 7.6, 10 µM
ASSAY_ENDPOINT: Activity (kCounts)
Numbers only here, please. The scale is kCounts.

Challenge: Given COc1cc(C=O)ccc1OCc1ccccc1COc1ccc(/C=C2/SC(=S)NC2=O)cc1OC , state its recorded Activity.
Response given: 4

###

Listing of recorded Activity by entry.
- ASSAY_EXPLANATION: Aggregation property of the compound in water at pH 7 assessed as particle size at 100 uM in absence of Triton X-100 by dynamic light scattering method
- Type: physicochemical
- CONDITION: buffer, pH 7, 100 µM
Numbers only here, please. The scale is nm.

Example cases with answers are listed next.
>  <STRUCTURE_AS_SMILES>
Cc1ccc(-c2nnc(NC(=O)c3ccccc3Cl)o2)c(C)c1

>  <REPORTED_VALUE>
1301

$$$$
>  <STRUCTURE_AS_SMILES>
CCc1cccc2sc(N(CCCn3ccnc3)C(=O)/C=C/c3cccs3)nc12

>  <REPORTED_VALUE>
3823

$$$$
>  <STRUCTURE_AS_SMILES>
CCSc1ccc(C(=O)Nc2nnc(-c3ccc4c(c3)CCCC4)o2)cc1

>  <REPORTED_VALUE>
1921

$$$$
>  <STRUCTURE_AS_SMILES>
Cc1cc(C)c2sc(N3CCCC3)nc2c1

>  <REPORTED_VALUE>
1762

$$$$
>  <STRUCTURE_AS_SMILES>
O=C(/C=C/c1ccccc1)Nc1nnc(-c2ccc3c(c2)CCCC3)o1

>  <REPORTED_VALUE>
1820

$$$$

Challenge: Given Cc1ccc(C)c(-c2nnc(NC(=O)c3ccc([N+](=O)[O-])s3)o2)c1 , state its recorded Activity.
Response given: 973

Challenge: Try this molecule too: CCSc1ccc(C(=O)Nc2nnc(-c3ccco3)o2)cc1
Response given: 1123

Challenge: Try this molecule too: O=C(c1cccs1)N(CCCn1ccnc1)c1nc2c(F)cc(F)cc2s1
Response given: 1852

###

- ASSAY_EXPLANATION: Inhibition of Mycobacterium tuberculosis shikimate kinase assessed as reduction in S3P production pre-incubated for 30 mins before ATP and shikimate substrate addition by LC-MS assay
ASSAY_ENDPOINT: pIC50
Lab note — pIC50 values are minus log10 of concentrations in M.

Challenge: Given CCSc1ccc(C(=O)Nc2nnc(-c3ccco3)o2)cc1 , state its recorded pIC50.
Response given: 4.68

###

Listing of recorded Activity by entry.
- ASSAY_EXPLANATION: Aggregation property of the compound in ammonium acetate buffer at pH 7.6 assessed as particle size at 100 uM in absence of Triton X-100 by dynamic light scattering method
- Format: physicochemical
- CONDITION: pH 7.6, 100 µM
Numbers only here, please. The scale is nm.

>  <STRUCTURE_AS_SMILES>
CC(C)(C)C(=O)Nc1nnc(-c2ccc(Br)cc2)o1

>  <UNITS_LABEL>
nm

>  <Activity>
1211

$$$$
>  <STRUCTURE_AS_SMILES>
CCCCC(=O)Nc1nnc(-c2ccc3c(c2)CCCC3)o1

>  <UNITS_LABEL>
nm

>  <Activity>
1432

$$$$
>  <STRUCTURE_AS_SMILES>
CCc1cccc2sc(N(CCCn3ccnc3)C(=O)/C=C/c3cccs3)nc12

>  <UNITS_LABEL>
nm

>  <Activity>
3776

$$$$

Challenge: Given CSc1ccc2nc(Nc3nc4ccc(NC(C)=O)cc4s3)sc2c1 , state its recorded Activity.
Response given: 1531

Challenge: Try this compound too: O=C(c1cccs1)N(CCCn1ccnc1)c1nc2c(F)cc(F)cc2s1
Response given: 1934

Challenge: Try this compound too: CCOc1ccc(C(=O)Nc2nnc(-c3ccc(C)cc3C)o2)cc1
Response given: 1620

Challenge: Try this compound too: Cc1cc(C)c2sc(N3CCCC3)nc2c1
Response given: 1750

Challenge: Try this compound too: Cc1ccc(-c2nnc(NC(=O)c3ccc([N+](=O)[O-])o3)o2)c(C)c1
Response given: 851

Challenge: Try this compound too: O=C(Nc1nnc(-c2ccccc2Cl)o1)c1cccc(Oc2ccccc2)c1
Response given: 2850

Challenge: Try this compound too: CCSc1ccc(C(=O)Nc2nnc(-c3ccco3)o2)cc1
Response given: 1151

Challenge: Try this compound too: Cc1ccc(-c2nnc(NC(=O)c3ccccc3Cl)o2)c(C)c1
Response given: 1321

Challenge: Try this compound too: CCSc1ccc(C(=O)Nc2nnc(-c3ccc4c(c3)CCCC4)o2)cc1
Response given: 2005

Challenge: Try this compound too: Cc1ccc(C)c(-c2nnc(NC(=O)c3ccc([N+](=O)[O-])s3)o2)c1
Response given: 986

Challenge: Try this compound too: O=C(/C=C/c1ccccc1)Nc1nnc(-c2ccc3c(c2)CCCC3)o1
Response given: 1820

###

- ASSAY_EXPLANATION: Aggregation property of the compound in ammonium acetate buffer at pH 7.6 assessed as particle size at 100 uM in presence of Triton X-100 by dynamic light scattering method
- Assay type: physicochemical
- CONDITION: pH 7.6, 100 µM
Assign T to entries whose Activity meets or exceeds 500 nm; assign F to the rest.

Solved cases (2 shown):
>  <STRUCTURE_AS_SMILES>
O=C(c1cccs1)N(CCCn1ccnc1)c1nc2c(F)cc(F)cc2s1

>  <CLASS_ASSIGNMENT>
F

$$$$
>  <STRUCTURE_AS_SMILES>
Cc1cc(C)c2sc(N3CCCC3)nc2c1

>  <CLASS_ASSIGNMENT>
F

$$$$

Challenge: Answer whether Activity of CCc1cccc2sc(N(CCCn3ccnc3)C(=O)/C=C/c3cccs3)nc12 is greater than or equal to 500 nm.
Response given: T

Challenge: Try this molecule too: CCCCC(=O)Nc1nnc(-c2ccc3c(c2)CCCC3)o1
Response given: F

###

- Tested on: Mycobacterium tuberculosis
- ASSAY_EXPLANATION: Inhibition of Mycobacterium tuberculosis shikimate kinase assessed as reduction in S3P production at 100 uM pre-incubated with 0.2 uM enzyme for 30 mins before ATP and shikimate substrate addition in presence of Triton X-100 by LC-MS assay
ASSAY_ENDPOINT: inhibition (%)
Numbers only here, please. The scale is %.

Example cases with answers are listed next.
>  <STRUCTURE_AS_SMILES>
O=C(/C=C/c1ccccc1)Nc1nnc(-c2ccc3c(c2)CCCC3)o1

>  <inhibition [%]>
0

$$$$
>  <STRUCTURE_AS_SMILES>
O=C(Nc1nnc(-c2ccccc2Cl)o1)c1cccc(Oc2ccccc2)c1

>  <inhibition [%]>
0

$$$$
>  <STRUCTURE_AS_SMILES>
Cc1ccc(-c2nnc(NC(=O)c3ccc([N+](=O)[O-])o3)o2)c(C)c1

>  <inhibition [%]>
0

$$$$

Challenge: Give the reported inhibition for CSc1ccc2nc(Nc3nc4ccc(NC(C)=O)cc4s3)sc2c1 (system: Mycobacterium tuberculosis).
Response given: 0

###

- ASSAY_EXPLANATION: Aggregation property of the compound in ammonium acetate buffer at pH 7.6 assessed as light scattering intensity counts at 100 uM in absence of Triton X-100 by dynamic light scattering method
- Format: physicochemical
- CONDITION: pH 7.6, 100 µM
Listing of recorded Activity by entry.
Numbers only here, please. The scale is kCounts.

>  <STRUCTURE_AS_SMILES>
CCSc1ccc(C(=O)Nc2nnc(-c3ccco3)o2)cc1

>  <Activity, kCounts>
250

$$$$

Let's switch to this compound now.
Challenge: Given Cc1ccc(-c2nnc(NC(=O)c3ccccc3Cl)o2)c(C)c1 , state its recorded Activity.
Response given: 270

###

- ASSAY_EXPLANATION: Aggregation property of the compound in water at pH 7 assessed as particle size at 100 uM in presence of Triton X-100 by dynamic light scattering method
- Type: physicochemical
- CONDITION: buffer, pH 7, 100 µM
Binarize Activity at 300 nm; below is condition met, at or above is condition not met.

Solved cases (5 shown):
>  <STRUCTURE_AS_SMILES>
O=C(c1cccs1)N(CCCn1ccnc1)c1nc2c(F)cc(F)cc2s1

>  <CLASS_ASSIGNMENT>
condition not met

$$$$
>  <STRUCTURE_AS_SMILES>
CCc1cccc2sc(N(CCCn3ccnc3)C(=O)/C=C/c3cccs3)nc12

>  <CLASS_ASSIGNMENT>
condition not met

$$$$
>  <STRUCTURE_AS_SMILES>
CCOc1ccc(C(=O)Nc2nnc(-c3ccc(C)cc3C)o2)cc1

>  <CLASS_ASSIGNMENT>
condition met

$$$$
>  <STRUCTURE_AS_SMILES>
O=C(Nc1nnc(-c2ccccc2Cl)o1)c1cccc(Oc2ccccc2)c1

>  <CLASS_ASSIGNMENT>
condition not met

$$$$
>  <STRUCTURE_AS_SMILES>
CC(C)(C)C(=O)Nc1nnc(-c2ccc(Br)cc2)o1

>  <CLASS_ASSIGNMENT>
condition met

$$$$

Challenge: Threshold test, Activity < 300 nm: CSc1ccc2nc(Nc3nc4ccc(NC(C)=O)cc4s3)sc2c1
Response given: condition met

Challenge: Try this molecule too: Cc1cc(C)c2sc(N3CCCC3)nc2c1
Response given: condition not met

Challenge: Try this molecule too: CCCCC(=O)Nc1nnc(-c2ccc3c(c2)CCCC3)o1
Response given: condition met
